- PROTOCOL TEXT: self-splicing fitness, log relative to wild type (ln ratio); higher = more splicing; Tetrahymena group I intron in knt gene, E. coli kanamycin selection, DiMSum; sequences stand for … in CUCUCU…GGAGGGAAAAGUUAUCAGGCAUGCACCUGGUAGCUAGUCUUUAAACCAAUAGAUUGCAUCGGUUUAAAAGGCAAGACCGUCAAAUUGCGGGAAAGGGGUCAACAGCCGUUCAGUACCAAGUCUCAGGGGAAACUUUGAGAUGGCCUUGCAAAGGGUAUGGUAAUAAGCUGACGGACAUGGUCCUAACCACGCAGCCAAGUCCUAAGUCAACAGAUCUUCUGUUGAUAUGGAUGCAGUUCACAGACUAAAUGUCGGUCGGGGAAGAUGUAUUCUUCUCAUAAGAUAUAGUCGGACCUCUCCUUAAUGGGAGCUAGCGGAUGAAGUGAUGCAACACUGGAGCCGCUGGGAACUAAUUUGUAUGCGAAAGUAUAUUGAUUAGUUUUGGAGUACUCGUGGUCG;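 further: selection with 25 µg/mL kanamycin versus none on LB agar overnight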
- CONDITIONS USED: 37 °C
Documented self-splicing fitness (ln) across a set of sequences

| SEQUENCE STRING | self-splicing fitness (ln) |
| --- | --- |
| GUCGAGCAAUAUUACGGUGG | -2.24 |
| CUCGAGCAAUAUUACGCACC | -2.08 |
| GGUAAGCAAUAUUACGGCGU | -0.0376 |
| UCCUAGCAAUAUUACGGAUU | -2.36 |
| CCCUAGCAAUAUUACGAUAA | -2.48 |
| GGGAAGCAAUAUUACGCCAU | -0.83 |
| CCCAAGCAAUAUUACGCUCU | -2.16 |
| CUGCAGCAAUAUUACGGGCU | -1.81 |
| UAAGAGCAAUAUUACGCAAA | -2.44 |
| UAGGAGCAAUAUUACGGCUA | 0.147 |
| UAAGAGCAAUAUUACGAUGC | -2.34 |
| CCGCAGCAAUAUUACGGAUU | -2.75 |
| UUCAAGCAAUAUUACGAGGC | -1.76 |
| CCAGAGCAAUAUUACGUAUG | -1.77 |
| AGUGAGCAAUAUUACGUCUA | -1.41 |
| GUUGAGCAAUAUUACGACUA | -2.85 |
